# reported inhibition; entries follow
# measurement_protocol: TLR3 IRF3 reporter activation blockers – cell-based, poly I:C stimulus, luciferase, 10K MLSCN set, primary screen (AID 602277)
# condition_summary: HEK293-TLR3 RL24 IRF3 luciferase reporter, at 10 µM, stronger effect = higher value
The answer is to be given in %; state only the numeric part.

{"compound": "O=C(NCc1cccnc1)c1cn(CCc2ccccc2)nn1", "u": "%", "result_value": 16.6}
{"compound": "Cc1ccc(S(=O)(=O)Cn2nnnc2CN(Cc2ccco2)Cc2cccs2)cc1", "u": "%", "result_value": 6.8}
{"compound": "CC(=O)c1c(C)[nH]c(C(=O)Nc2ccc3c(c2)OCCO3)c1C", "u": "%", "result_value": -58}
{"compound": "COCCCNCC(=O)Nc1ccc(OC(F)(F)F)cc1", "u": "%", "result_value": -0.468}
{"compound": "c1ccc(-c2nc3ccccc3nc2-c2ccccn2)nc1", "u": "%", "result_value": 14.2}

Exercise: Which inhibition is reported for this compound? O=C1CC(c2ccc(S(=O)(=O)N3CCN(c4ccccc4)CC3)cc2)CN1 (configuration not stated)
Solution: 14.5

Exercise: Endpoint output: inhibition of `Cc1sc2ncnc(SCC(=O)N3CCCC3)c2c1C` . Value?
Solution: 6.41

----------
A collection of compounds and their measured inhibition
# measurement_protocol: endothelial E-selectin expression blockers – imaging, HUVEC, immunofluorescence, MLSMR starter and 10KST1 sets, primary screen (AID 487);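 note: signal is fraction of cell area covered by stained E-selectin grains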
# condition_summary: HUVEC TNFalpha-induced E-selectin immunofluorescence imaging, at 2 µM; stronger effect = higher value
Numeric answer only, unit % assumed.

# count of solved cases: 5
{"compound": "CC1(C)CC(=O)c2c(O)cc(O)cc2O1", "inhibition (%)": -55.7}
{"compound": "Cc1ccc(C)c2[nH]c(=O)c(CCNC(=O)c3ccc(Br)o3)cc12", "inhibition (%)": 23.8}
{"compound": "CC(=O)C1=C(N2CCCCC2)CCC1=O", "inhibition (%)": -0.5}
{"compound": "CCn1nnnc1SCC(=O)Nc1nc(-c2cccs2)cs1", "inhibition (%)": -63.9}
{"compound": "O=C(Oc1ccc(Cl)cc1N1C(=O)CCC1=O)c1ccco1", "inhibition (%)": -182}

Exercise: Please give the measured inhibition for this compound: `Cc1cccc2cc(CN(Cc3nnnn3Cc3ccccc3)C3CCCC3)c(=O)[nH]c12`
Solution: -35.7

----------
# subject_of_test: Alpha-2C adrenergic receptor (Homo sapiens)
# measurement_protocol: compounds altering alpha2C-coupled GIRK flux – cell-based, HEK293 alpha2C/GIRK1/2, thallium flux, primary screen (AID 624);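 note: slope of fluorescence ratio to pre-addition baseline per second over 15 to 24 s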
# condition_summary: thallium flux BTC fluorescence, at 10 µM, actives lie on both sides
measurement_label: slope
Lab note: write the figure by itself, no unit.

{"molecule": "CCCC(=O)Nc1cc(-c2nnc(OC)c3ccccc23)ccc1N1CCOCC1", "measurement_label": "slope", "result_value": 0.00489}
{"molecule": "COc1cc(C(=O)NCC(=O)OCC(=O)c2ccc[nH]2)cc(OC)c1OC", "measurement_label": "slope", "result_value": 0.00501}

Exercise: Would you mind telling me what slope value was observed for `CCn1c(CNc2ccc(OC)cc2)nnc1SCC(=O)c1ccc(OC)cc1` ?
Solution: 0.00516

Exercise: Quick one: slope of `O=C(OCN1C(=O)c2ccccc2C1=O)c1ccc2c(=O)n3c(nc2c1)CCC3` ?
Solution: 0.00527

Exercise: # slope lookup, item `CC(=O)c1cc2c(cc1NC(=O)CN1CCN(C(=O)c3ccco3)CC1)OCO2`
Solution: 0.00807

Exercise: Form field: reported slope of `Cc1ccc(CN2CCN(C(=O)C3CCC3)CC2)cc1`
Solution: 0.00503
